- System Name: T1, IL10Rα/IL2Rγ receptor (human, UniProt Q13651 22-578; P31785 23-369)
- T1 sequence (looked up) 1: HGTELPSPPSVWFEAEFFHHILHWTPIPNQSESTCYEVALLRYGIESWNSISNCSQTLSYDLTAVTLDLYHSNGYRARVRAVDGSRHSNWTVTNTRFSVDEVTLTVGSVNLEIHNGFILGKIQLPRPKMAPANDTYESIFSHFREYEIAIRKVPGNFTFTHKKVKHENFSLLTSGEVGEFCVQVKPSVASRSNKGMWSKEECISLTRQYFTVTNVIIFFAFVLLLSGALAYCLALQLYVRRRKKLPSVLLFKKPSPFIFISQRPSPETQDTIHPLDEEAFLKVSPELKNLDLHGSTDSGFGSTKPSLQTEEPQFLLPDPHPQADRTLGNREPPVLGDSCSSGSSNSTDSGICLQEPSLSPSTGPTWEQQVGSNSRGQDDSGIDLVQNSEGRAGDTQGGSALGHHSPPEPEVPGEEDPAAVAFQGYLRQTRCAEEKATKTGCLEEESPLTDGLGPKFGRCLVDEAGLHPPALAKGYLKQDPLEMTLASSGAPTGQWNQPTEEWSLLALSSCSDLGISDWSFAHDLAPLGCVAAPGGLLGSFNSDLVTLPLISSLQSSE
- T1 sequence (looked up) 2: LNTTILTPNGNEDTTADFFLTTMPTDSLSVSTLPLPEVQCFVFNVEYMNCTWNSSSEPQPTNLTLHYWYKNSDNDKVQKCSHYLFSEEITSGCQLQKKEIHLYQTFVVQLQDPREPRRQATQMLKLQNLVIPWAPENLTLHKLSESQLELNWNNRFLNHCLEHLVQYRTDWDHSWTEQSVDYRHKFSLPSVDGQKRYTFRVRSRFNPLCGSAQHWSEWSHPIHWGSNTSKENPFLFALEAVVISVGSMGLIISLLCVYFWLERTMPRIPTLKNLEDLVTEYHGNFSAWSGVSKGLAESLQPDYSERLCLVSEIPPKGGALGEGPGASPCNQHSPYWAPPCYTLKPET
- Assay Protocol: cell-based or functional assay
So I've got a bunch of binders here, and I need their pSTAT3 MFI, Monocytes, 100 nM (unstimulated 1787) values.
Numbers only, in MFI.

Please supply pSTAT3 MFI, Monocytes, 100 nM (unstimulated 1787) for each of the following items, keeping them in order.
1. DR392(DR229-DR236) (bispecific antibody) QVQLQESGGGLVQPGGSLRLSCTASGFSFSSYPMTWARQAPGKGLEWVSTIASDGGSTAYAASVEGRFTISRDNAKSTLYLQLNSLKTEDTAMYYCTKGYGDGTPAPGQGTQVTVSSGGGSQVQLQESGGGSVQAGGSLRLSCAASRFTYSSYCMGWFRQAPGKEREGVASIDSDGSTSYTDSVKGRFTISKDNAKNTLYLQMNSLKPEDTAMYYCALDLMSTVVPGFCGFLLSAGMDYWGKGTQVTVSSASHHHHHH
2. DR468(DR240-DR234) (bispecific antibody) QVQLQESGGGSVQAGGSLRLSCGASGYTYSSYCMGWFRQVPGKEREGVAVIDSDGSTSYADSVKGRFTISKDNGKNTLYLQMNSLKPEDTAMYYCAADLGHYRPPCGVLYLGMDYWGKGTQVTVSSGGGSQVQLQESGGGSVQAGGSLRLSCVASGYTFSSYCMGWFRQAPGKEREGVAALGGGSTYYADSVKGRFTISQDNAKNTLYLQMNSLKPEDTAMYYCAAAWVACLEFGGSWYDLARYKHWGQGTQVTVSSASHHHHHH
3. DR465(DR240-DR231) (bispecific antibody) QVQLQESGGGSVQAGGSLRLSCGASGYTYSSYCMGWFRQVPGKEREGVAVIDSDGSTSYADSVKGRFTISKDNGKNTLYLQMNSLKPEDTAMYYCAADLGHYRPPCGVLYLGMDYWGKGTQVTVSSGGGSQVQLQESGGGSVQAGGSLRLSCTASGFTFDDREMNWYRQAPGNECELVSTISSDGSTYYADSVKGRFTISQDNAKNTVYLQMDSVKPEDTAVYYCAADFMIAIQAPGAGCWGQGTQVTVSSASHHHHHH

1. 1890
2. 1860
3. 2350
